# TGT: insulin-degrading enzyme (recombinant human IDE) (human), P14735
# CONDITION DETAILS: modification not given
Square brackets hold non-standard residues; d marks the D form. Ends that are not written are not given here.
READOUT LABEL: Ki (nM)
Write down the numeric answer in nM and omit the unit.

Query (binder): [2‑benzothiophenylalanine]-Arg-Tyr [2-benzothiophenylalanine] ; field requested: Ki 1100
